- experiment summary: chemical genetic growth profiling, strain panel (AID 1159580);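 note: tested at 20 µM; growth read once vehicle control cultures reached saturation at 30 °C; 1 = growth at the plate median or of vehicle wells; lower values mean less growth of the strain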
- reported conditions: S. cerevisiae deletion strains, growth OD, locus YNL271C, strain bni1, stronger effect = lower value
In all, about 5,500 compounds went through this assay and about 2,000 (36%) were called active. Not shown: some 18% with an inconclusive outcome. The list shows a part of the results.
Recorded normalized growth, one value per entry.
Response field accepts a number only; no unit should be typed.

Below, 5 compounds whose answers are already recorded.
compound | endpoint result
C=C1CCC(OC(C)=O)/C(C)=C/C[C@@H]2[C@@H]1CC2(C)C (stereo partly specified) | 1.01
CC1(C)NC(=O)N(c2ccc([N+](=O)[O-])c(C(F)(F)F)c2)C1=O | 0.966
CC(C)NNC(=O)c1ccncc1 | 1.02
CCN(CC)C(=O)c1cccc(C)c1 | 1
Cc1ccc(C)c(OCCCC(C)(C)C(=O)O)c1 | 0.452

Item: CO/N=C(\C(=O)N[C@@H]1C(=O)N2C(C(=O)O)=C(COC(C)=O)CS[C@H]12)c1csc(N)n1 | normalized growth: 1.01

Item: COC(=O)[C@@H]1OC(=O)[C@H]2O[C@@]23[C@@]1(C)CCC1[C@@]2(C)CCC(=O)C(C)(C)C2C[C@@H](OC(C)=O)[C@]13C (stereo partly specified) | normalized growth: 1.01

Item: CCCC(=O)O[C@]1(C(=O)CO)CCC2[C@@H]3CCC4=CC(=O)CC[C@]4(C)C3[C@@H](O)C[C@@]21C (stereo partly specified) | normalized growth: 0.992

Item: COc1cc([C@@H]2c3cc4c(c(O)c3C[C@H]3COC(=O)[C@@H]32)OCO4)cc(OC)c1OC | normalized growth: 0.973

Item: Nc1ccc(N=Nc2ccccc2)c(N)n1 | normalized growth: 0.995
